# System: A549-ACE2
# assay remarks: drug-induced phospholipidosis relative to tamoxifen; higher = more phospholipidosis
# protocol conditions: 3.33333 µM; 72 h

[
  {
    "compound": "COc1ccccc1C1(O)CCN(CCCn2c3ccccc3c3ccccc32)CC1",
    "drug-induced phospholipidosis / %": 49.7
  },
  {
    "compound": "Cc1[nH]c(/C=C2\\C(=O)Nc3ccc(S(=O)(=O)Cc4c(Cl)cccc4Cl)cc32)c(C)c1C(=O)N1CCC[C@@H]1CN1CCCC1",
    "drug-induced phospholipidosis / %": 43.6
  },
  {
    "compound": "C[C@@H]1C[C@H]2[C@@H]3CCC4=CC(=O)C=C[C@]4(C)[C@@]3(Cl)[C@@H](O)C[C@]2(C)[C@@]1(OC(=O)c1ccco1)C(=O)CCl [MOMETASONE FUROATE]",
    "drug-induced phospholipidosis / %": 16.9
  },
  {
    "compound": "CC(C)(C)Cn1c(N)nc2ccc(-c3[nH]c(C(C)(C)C)nc3-c3ccc(F)cc3)nc21",
    "drug-induced phospholipidosis / %": 4.98
  },
  {
    "compound": "C=C1C(=O)O[C@@H]2[C@H]3O[C@]3(C)CC/C=C(\\C)CC[C@@H]12 [parthenolide-(alternate-stereo)]",
    "drug-induced phospholipidosis / %": -0.616
  },
  {
    "compound": "FC(F)(F)c1ccc(CNc2ccc(Cc3c[nH]c4ncc(Cl)cc34)cn2)cn1",
    "drug-induced phospholipidosis / %": 3.26
  }
]
